Values were extracted from paper PMC7327080.

# TARGET_UNDER_TEST: mTOR (Homo sapiens)
PROPERTY: pIC50
Just the number, please; pIC50 means minus log10 of the concentration in mol/L.

Ask: mTOR (Homo sapiens) / pIC50 / COc1ncc(-c2ccc3ncnc(Nc4cnn(CCO)c4)c3c2)cc1NS(=O)(=O)c1ccc(F)cc1F : value?
Reply: 8.52
